- Test system: HOP-62
- Procedure text: NCI tumour cell line growth inhibition, 48 h
Activity calls are given as the source filed them. Cut-off read from the data, not from the text of the source: active = GI50 up to about 1.1 µM and inactive = higher.

>  <Compound>
O=[N+]([O-])c1ccc(N/N=C/c2ccc(OCCCCCCCCCCCO)cc2)c([N+](=O)[O-])c1

>  <Target or system>
HOP-62

>  <GI50>
4.39 µM (inactive)

$$$$
>  <Compound>
O=c1[nH]nc(Cc2ccccc2)n1/N=C/c1cccs1

>  <Target or system>
HOP-62

>  <GI50>
> 100 µM (inactive)

$$$$
>  <Compound>
O=C1N(CN2CCOCC2)CN(CN2CCOCC2)C(=O)N1Cc1ccc(-c2ccc(CN3C(=O)N(CN4CCOCC4)CN(CN4CCOCC4)C3=O)cc2)cc1

>  <Target or system>
HOP-62

>  <GI50>
21.6 µM (inactive)

$$$$
>  <Compound>
C[C@]12CCC(=O)C=C1CC[C@@H]1C2CC[C@]2(C)c3nn(-c4ccc(F)cc4)nc3CC12 (some centres undefined)

>  <Target or system>
HOP-62

>  <GI50>
76.2 µM (inactive)

$$$$
>  <Compound>
COC(=O)C1=C(C(=O)OC)C2(C)CCC(=O)C1O2 (centres undefined)

>  <Target or system>
HOP-62

>  <GI50>
> 10 µM (inactive)

$$$$
>  <Compound>
C=C(C)C1CC2=C(O1)C(=O)c1cccc(O)c1C2=O (centres undefined)

>  <Target or system>
HOP-62

>  <GI50>
1.57 µM (inactive)

$$$$
>  <Compound>
COc1cc2c3c(c1)c1cc(OC)c(OC)cc1c[n+]3CC2

>  <Target or system>
HOP-62

>  <GI50>
5.73 µM (inactive)

$$$$
>  <Compound>
CCOC(=O)C(Cc1ccccc1)NC(=O)OC(C)(C)C (centres undefined)

>  <Target or system>
HOP-62

>  <GI50>
> 100 µM (inactive)

$$$$
>  <Compound>
CC(=O)O[C@]12CCCCCC1C1(O)C(O)CCCC[C@H]12 (some centres undefined)

>  <Target or system>
HOP-62

>  <GI50>
> 100 µM (inactive)

$$$$
>  <Compound>
CCOC(=O)CC(=O)CSc1c(-c2ccccc2)c(=O)n(-c2ccccc2)c(=S)n1-c1ccccc1

>  <Target or system>
HOP-62

>  <GI50>
> 100 µM (inactive)

$$$$
>  <Compound>
CC1(c2ccccc2)N=c2[nH]cnc2=C(C(N)=O)N1 (centres undefined)

>  <Target or system>
HOP-62

>  <GI50>
> 100 µM (inactive)

$$$$
>  <Compound>
CNC(=S)N/N=C/c1cccc(C)n1

>  <Target or system>
HOP-62

>  <GI50>
20.7 µM (inactive)

$$$$
>  <Compound>
Cc1cc(Cl)ccc1NC(=O)C(=O)Cc1ccc([N+](=O)[O-])c([N+](=O)[O-])c1CC(=O)C(=O)Nc1ccc(Cl)cc1C

>  <Target or system>
HOP-62

>  <GI50>
> 100 µM (inactive)

$$$$
>  <Compound>
COc1cc2c(cc1OC)C(C#N)N(C(=O)c1ccccc1)C=C2OC(=O)c1ccccc1 (centres undefined)

>  <Target or system>
HOP-62

>  <GI50>
17.6 µM (inactive)

$$$$
>  <Compound>
O=C1CCc2ccc(O)c(c2)Oc2ccc(cc2)C(Sc2ccccc2)CCO1 (centres undefined)

>  <Target or system>
HOP-62

>  <GI50>
12.9 µM (inactive)

$$$$
>  <Compound>
C=C(C1=CC(=O)C(C)(C)O1)[C@@H]1CC=C([C@@H]2CC[C@H]3[C@@]2(C)CC[C@H]2C(C)(C)C(=O)[C@H](O)C[C@]32C)[C@H](O)O1

>  <Target or system>
HOP-62

>  <GI50>
3.15 µM (inactive)

$$$$
>  <Compound>
Cc1ccc(S(=O)(=O)c2c(N)c3nc4ccccc4n3c3nc4ccccc4nc23)cc1

>  <Target or system>
HOP-62

>  <GI50>
7.59 µM (inactive)

$$$$
>  <Compound>
O=C(O)Cc1cccc2c1Oc1ccccc1S2

>  <Target or system>
HOP-62

>  <GI50>
> 100 µM (inactive)

$$$$
>  <Compound>
COC(=O)C1=C(O)C(C(=O)OC)[C@@]2(O)[C@@H](C(=O)OC)C(c3ccc(OC(=O)/C(=C/c4ccc(Cl)cc4)c4ccc(Cl)cc4)cc3)C[C@@H]1[C@@H]2C(=O)OC (some centres undefined)

>  <Target or system>
HOP-62

>  <GI50>
> 100 µM (inactive)

$$$$
